Biological target: T1, NLpoly11S
T1 chain: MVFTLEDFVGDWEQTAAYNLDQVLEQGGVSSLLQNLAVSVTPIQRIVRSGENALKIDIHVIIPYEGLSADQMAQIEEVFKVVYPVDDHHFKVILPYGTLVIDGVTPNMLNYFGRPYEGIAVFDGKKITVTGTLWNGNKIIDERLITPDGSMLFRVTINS
Assay: luminescence complementation titration, one-site specific binding fit
measured quantity: Bmax
Just the number.

Please review the following examples before continuing.
binder: VEGYRLFKEIS (modifications not checked) [array2.61]
val: 5460
--
binder: VTGYRLFQQEL (modifications not checked) [array2.42]
val: 14200
--
binder: VEGYRLFKQES (modifications not checked) [array2.60]
val: 4350
--
binder: VEGYRLFKEIL (modifications not checked) [array2.88]
val: 9830
--
binder: VEGYRLFEKES (modifications not checked) [array2.75]
val: 1170
--
binder: VEGYRLFEKIL (modifications not checked) [array2.100]
val: 35000
--
binder: VEGYRLFKKEL (modifications not checked) [array2.84]
val: 7830
--
binder: VTGYRLFQEEL (modifications not checked) [array2.45]
val: 14300
--
binder: VTGYRLFQQES (modifications not checked) [array2.15]
val: 5200
--
binder: VTGYRLFQEAL (modifications not checked) [array2.44]
val: 4230

Endpoint output: Bmax of VEGYRLFQKES (modifications not checked) [array2.66] . Value?
3490

Cool, now VTGYRLFEQES (modifications not checked) [array2.24]
1830

And for VEGYRLFEKIS (modifications not checked) [array2.73] ?
22500

Origin of measurements: patent US20200292534A1
